- condition parameters: in isobutanol, 313.15 K
quantity kind: solubility (mole fraction)
Output spec: single numeric token, no unit.

For CNC(=O)c1cc(Oc2ccc(NC(=O)Nc3ccc(Cl)c(C(F)(F)F)c3)cc2)ccn1 , write its solubility (mole fraction).
0.00126

---

- condition parameters: in isobutanol, 283.15 K
quantity kind: solubility (mole fraction)
Output spec: single numeric token, no unit.

For CNC(=O)c1cc(Oc2ccc(NC(=O)Nc3ccc(Cl)c(C(F)(F)F)c3)cc2)ccn1 , write its solubility (mole fraction).
0.00058

---

- condition parameters: in 2-butanone, 303.15 K
quantity kind: solubility (mole fraction)

For CNC(=O)c1cc(Oc2ccc(NC(=O)Nc3ccc(Cl)c(C(F)(F)F)c3)cc2)ccn1 , write its solubility (mole fraction).
0.0111

---

- condition parameters: in acetone, 283.15 K
quantity kind: solubility (mole fraction)
Output spec: single numeric token, no unit.

For CNC(=O)c1cc(Oc2ccc(NC(=O)Nc3ccc(Cl)c(C(F)(F)F)c3)cc2)ccn1 , write its solubility (mole fraction).
0.00293

---

- condition parameters: in methanol, 308.15 K
quantity kind: solubility (mole fraction)

For CNC(=O)c1cc(Oc2ccc(NC(=O)Nc3ccc(Cl)c(C(F)(F)F)c3)cc2)ccn1 , write its solubility (mole fraction).
0.000769

---

- condition parameters: in toluene, 273.15 K
quantity kind: solubility (mole fraction)

For CNC(=O)c1cc(Oc2ccc(NC(=O)Nc3ccc(Cl)c(C(F)(F)F)c3)cc2)ccn1 , write its solubility (mole fraction).
0.00197

---

- condition parameters: in acetone, 293.15 K
quantity kind: solubility (mole fraction)

For CNC(=O)c1cc(Oc2ccc(NC(=O)Nc3ccc(Cl)c(C(F)(F)F)c3)cc2)ccn1 , write its solubility (mole fraction).
0.00369

---

- condition parameters: in isopropanol, 283.15 K
quantity kind: solubility (mole fraction)
Output spec: single numeric token, no unit.

For CNC(=O)c1cc(Oc2ccc(NC(=O)Nc3ccc(Cl)c(C(F)(F)F)c3)cc2)ccn1 , write its solubility (mole fraction).
0.000665

---

- condition parameters: in ethanol, 298.15 K
quantity kind: solubility (mole fraction)
Output spec: single numeric token, no unit.

For CNC(=O)c1cc(Oc2ccc(NC(=O)Nc3ccc(Cl)c(C(F)(F)F)c3)cc2)ccn1 , write its solubility (mole fraction).
0.00114

---

- condition parameters: in 2-butanone, 298.15 K
quantity kind: solubility (mole fraction)
Output spec: single numeric token, no unit.

For CNC(=O)c1cc(Oc2ccc(NC(=O)Nc3ccc(Cl)c(C(F)(F)F)c3)cc2)ccn1 , write its solubility (mole fraction).
0.0101

---

- condition parameters: in 2-butanone, 293.15 K
quantity kind: solubility (mole fraction)
Output spec: single numeric token, no unit.

For CNC(=O)c1cc(Oc2ccc(NC(=O)Nc3ccc(Cl)c(C(F)(F)F)c3)cc2)ccn1 , write its solubility (mole fraction).
0.00929

---

- condition parameters: in ethyl acetate, 273.15 K
quantity kind: solubility (mole fraction)
Output spec: single numeric token, no unit.

For CNC(=O)c1cc(Oc2ccc(NC(=O)Nc3ccc(Cl)c(C(F)(F)F)c3)cc2)ccn1 , write its solubility (mole fraction).
0.000835

---

- condition parameters: in 2-butanone, 283.15 K
quantity kind: solubility (mole fraction)

For CNC(=O)c1cc(Oc2ccc(NC(=O)Nc3ccc(Cl)c(C(F)(F)F)c3)cc2)ccn1 , write its solubility (mole fraction).
0.0079

---

- condition parameters: in n-propanol, 293.15 K
quantity kind: solubility (mole fraction)
Output spec: single numeric token, no unit.

For CNC(=O)c1cc(Oc2ccc(NC(=O)Nc3ccc(Cl)c(C(F)(F)F)c3)cc2)ccn1 , write its solubility (mole fraction).
0.00126

---

- condition parameters: in toluene, 303.15 K
quantity kind: solubility (mole fraction)
Output spec: single numeric token, no unit.

For CNC(=O)c1cc(Oc2ccc(NC(=O)Nc3ccc(Cl)c(C(F)(F)F)c3)cc2)ccn1 , write its solubility (mole fraction).
0.00352

---

- condition parameters: in acetonitrile, 308.15 K
quantity kind: solubility (mole fraction)
Output spec: single numeric token, no unit.

For CNC(=O)c1cc(Oc2ccc(NC(=O)Nc3ccc(Cl)c(C(F)(F)F)c3)cc2)ccn1 , write its solubility (mole fraction).
0.000571

---

- condition parameters: in isobutanol, 288.15 K
quantity kind: solubility (mole fraction)
Output spec: single numeric token, no unit.

For CNC(=O)c1cc(Oc2ccc(NC(=O)Nc3ccc(Cl)c(C(F)(F)F)c3)cc2)ccn1 , write its solubility (mole fraction).
0.000661

---

- condition parameters: in n-propanol, 298.15 K
quantity kind: solubility (mole fraction)
Output spec: single numeric token, no unit.

For CNC(=O)c1cc(Oc2ccc(NC(=O)Nc3ccc(Cl)c(C(F)(F)F)c3)cc2)ccn1 , write its solubility (mole fraction).
0.00143

---

- condition parameters: in acetone, 313.15 K
quantity kind: solubility (mole fraction)
Output spec: single numeric token, no unit.

For CNC(=O)c1cc(Oc2ccc(NC(=O)Nc3ccc(Cl)c(C(F)(F)F)c3)cc2)ccn1 , write its solubility (mole fraction).
0.00558

---

- condition parameters: in isobutanol, 278.15 K
quantity kind: solubility (mole fraction)

For CNC(=O)c1cc(Oc2ccc(NC(=O)Nc3ccc(Cl)c(C(F)(F)F)c3)cc2)ccn1 , write its solubility (mole fraction).
0.000498
